# PROTOCOL DETAILS: Saturation solubility of enavogliflozin in aqueous excipient solutions (HPLC)
# Type: physicochemical
# PARTICULARS: aqueous excipient solution (excipient in purified water), aqueous with cosolvent or surfactant or cyclodextrin, thermodynamic from solid, Kollidon™ K90 1.50 %w/v in purified water; read-out: Saturation solubility

| SMILES TEXT | UNIT TAG | solubility at 12 h |
| --- | --- | --- |
| OC[C@H]1O[C@@H](c2cc(Cc3ccc(C4CC4)cc3)c(Cl)c3c2CCO3)[C@H](O)[C@@H](O)[C@@H]1O | µg/mL | 620 |

###

# PROTOCOL DETAILS: Saturation solubility of enavogliflozin in aqueous excipient solutions (HPLC)
# Type: physicochemical
# PARTICULARS: aqueous excipient solution (excipient in purified water), water, thermodynamic from solid, Glycerol 2.25 %w/v in purified water; read-out: Saturation solubility
RECORDED METRIC: solubility at 12 h

| SMILES TEXT | RECORDED METRIC | RESULT |
| --- | --- | --- |
| OC[C@H]1O[C@@H](c2cc(Cc3ccc(C4CC4)cc3)c(Cl)c3c2CCO3)[C@H](O)[C@@H](O)[C@@H]1O | solubility at 12 h | 240 µg/mL |

Cited source: patent EP4631498A1
